- assay: chemical recovery into PDMS from spiked human plasma; higher = better extraction
- reported.conditions: pooled human plasma; extraction method: PES with PDMS; equilibration time (d): 6
Reported chemical recovery into PDMS maps to class as: Low: < 20%; Medium: ≥ 20% and < 40%; High: ≥ 40%

{"columns": ["molecule", "assigned.category"],
 "data": [
  ["CC(C)Oc1cc(-n2nc(C(C)(C)C)oc2=O)c(Cl)cc1Cl [Oxadiazone]", "Medium"],
  ["CCCCC(C#N)(Cn1cncn1)c1ccc(Cl)cc1 (configuration not stated) [Myclobutanil]", "High"],
  ["COc1ccccc1Oc1c(NS(=O)(=O)c2ccc(C(C)(C)C)cc2)nc(-c2ncccn2)nc1OCCO [Bosentan]", "Low"],
  ["CCOC(=O)c1ccc(N(C)C)cc1 [Ethyl 4-(dimethylamino)benzoate]", "Medium"],
  ["Cc1cc(=O)oc2cc(N)ccc12 [7-Amino-4-methylcoumarin]", "Low"],
  ["CCCOP(=O)(OCCC)OCCC [Tripropyl phosphate]", "Medium"],
  ["C=CCOC(Cn1ccnc1)c1ccc(Cl)cc1Cl (configuration not stated) [Imazalil]", "Medium"],
  ["CCOC(=O)C1=C(C)NC(C)=C(C(=O)OC)C1c1cccc([N+](=O)[O-])c1 (configuration not stated) [Nitrendipin]", "Low"],
  ["Nc1cnn(-c2ccccc2)c(=O)c1Cl [Chloridazon]", "Low"],
  ["CC(C)N(C(=O)CCl)c1ccccc1 [Propachlor]", "Medium"],
  ["C[C@H]1C[C@H]2[C@@H]3CCC4=CC(=O)C=C[C@]4(C)[C@@]3(F)[C@@H](O)C[C@]2(C)[C@@]1(O)C(=O)CCl [Clobetasol]", "Low"],
  ["c1ccc(-c2cccc(-c3ccccc3)c2)cc1 [m-Terphenyl]", "High"],
  ["O=c1c2ccccc2[nH]c2ccccc12 [Acridone]", "Medium"],
  ["CSc1nnc(C(C)(C)C)c(=O)n1N [Metribuzin]", "Medium"],
  ["N#Cc1nn(-c2c(Cl)cc(C(F)(F)F)cc2Cl)c(N)c1S(=O)(=O)C(F)(F)F [Fipronil sulfone]", "Medium"],
  ["CCCCCCCCc1cccc(Nc2ccccc2)c1CCCCCCCC [Dioctyldiphenylamine]", "Low"],
  ["O=C1C2CC3C1C1(Cl)C(Cl)C4(Cl)C2C3C1(Cl)C4(Cl)Cl (configuration not stated) [Endrinketone]", "High"],
  ["CCCNCCOc1c(Cl)cc(Cl)cc1Cl [Prochloraz BTS403-48]", "Low"],
  ["CC(CCl)OP(=O)(OC(C)CCl)OC(C)CCl (configuration not stated) [Tris(1-chloro-2-propyl)phosphate]", "High"],
  ["c1ccc2cc3ccccc3cc2c1 [Anthracene]", "High"],
  ["CN(Cc1nc2c(N)nc(N)nc2nc1O)c1ccc(C(=O)N[C@@H](CCC(=O)O)C(=O)O)cc1 [7-Hydroxymethotrexate]", "Low"],
  ["CCc1cccc(C)c1N(C(=O)C(=O)O)C(C)COC (configuration not stated) [Metolachlor OA]", "Medium"],
  ["CC1CN(C2CCCCCCCCCCC2)CC(C)O1 (configuration not stated) [Dodemorph]", "Low"],
  ["COC(=O)[C@H](c1ccccc1Cl)N1CCc2sccc2C1 [Clopidogrel]", "Medium"],
  ["C[C@]12CCC(=O)C=C1CC[C@@H]1[C@@H]2CC[C@]2(C)C(=O)CC[C@@H]12 [4-Androstene-3,17-dione]", "High"],
  ["O=C(O)C(F)(F)C(F)(F)C(F)(F)C(F)(F)C(F)(F)C(F)(F)F [Perfluoroheptanoic acid]", "Low"],
  ["O=P1(N(CCCl)CCCl)NCCCO1 (configuration not stated) [Cyclophosphamide]", "Low"],
  ["ClC(Cl)=C(c1ccc(Cl)cc1)c1ccc(Cl)cc1 [4,4-DDE]", "High"],
  ["CCCCCCCCCCCCCC[N+](C)(C)Cc1ccccc1 [Benzyldimethyltetradecylammonium]", "Low"],
  ["CCN(CC)c1nc(C)cc(OP(=S)(OC)OC)n1 [Pirimiphos-methyl]", "Medium"],
  ["CCC(=O)O[C@]1(C(=O)CCl)[C@@H](C)C[C@H]2[C@@H]3CCC4=CC(=O)C=C[C@]4(C)[C@@]3(F)[C@@H](O)C[C@@]21C [Clobetasol propionate]", "Medium"],
  ["O=C(/C=C/C=C/c1ccc2c(c1)OCO2)N1CCCCC1 [Piperine]", "Medium"],
  ["CN1CCN(C)C1=O [1,3-Dimethyl-2-imidazolidinone]", "Low"],
  ["CCCCOCCOCCOCc1cc2c(cc1CCC)OCO2 [Piperonyl butoxide]", "High"],
  ["O=[N+]([O-])c1cc[n+]([O-])c2ccccc12 [4-Nitroquinoline-1-oxide]", "Low"],
  ["OC(Cn1cncn1)(Cn1cncn1)c1ccc(F)cc1F [Fluconazole]", "Low"]
]}

---

Reported chemical recovery is given for each of the following compounds.
- assay: chemical recovery from spiked human plasma; higher = better extraction
- reported.conditions: pooled human plasma; extraction method: SPE only (HLB 96-well)

{"columns": ["compound", "units", "chemical recovery"],
 "data": [
  ["C[C@@]12CCC[C@H]1[C@@H]1CC[C@H]3C[C@@H](O)CC[C@]3(C)[C@H]1CC2", "%", 1.3],
  ["Oc1ccc(C2(c3ccc(O)cc3)c3ccccc3-c3ccccc32)cc1", "%", 34.3],
  ["Cc1cccc(C)c1N", "%", 7.08],
  ["Clc1ccc(Cl)c(-c2cc(Cl)c(Cl)cc2Cl)c1", "%", 1.78],
  ["COc1c(C(C)(C)C)cc([N+](=O)[O-])c(C)c1[N+](=O)[O-]", "%", 2.96],
  ["CC[C@H]1OC(=O)[C@H](C)[C@@H](O[C@H]2C[C@@](C)(OC)[C@@H](O)[C@H](C)O2)[C@H](C)[C@@H](O[C@@H]2O[C@H](C)C[C@H](N(C)C)[C@H]2O)[C@](C)(O)C[C@@H](C)C(=O)[C@H](C)[C@@H](O)[C@]1(C)O", "%", 10.9],
  ["Clc1cc(-c2cc(Cl)c(Cl)c(Cl)c2Cl)c(Cl)c(Cl)c1Cl", "%", 0.915],
  ["C=C(C)C(=O)NCCCN(C)C [N-(3-Dimethylamino)propyl)methacrylamide]", "%", 39.9],
  ["CN(C)C(=O)Nc1ccccc1", "%", 46.9],
  ["CNC(=O)Oc1cc(C)c(S(C)(=O)=O)c(C)c1", "%", 19.9],
  ["COC(=O)N(C(=O)N1CO[C@@]2(C(=O)OC)Cc3cc(Cl)ccc3C2=N1)c1ccc(OC(F)(F)F)cc1", "%", 61.3],
  ["CCCC(Cn1cncn1)c1ccc(Cl)cc1Cl (configuration not stated)", "%", 65.9],
  ["C#CCOS(=O)OC1CCCCC1Oc1ccc(C(C)(C)C)cc1 (configuration not stated)", "%", 42.4],
  ["Nc1cnn(-c2ccccc2)c(=O)c1Cl", "%", 37.3],
  ["O=S1OC[C@@H]2[C@H](CO1)[C@]1(Cl)C(Cl)=C(Cl)[C@]2(Cl)C1(Cl)Cl (stereo partly drawn) [beta-Endosulfan]", "%", 3.92],
  ["CC(C)c1ccc2c(c1)CC[C@H]1[C@](C)(C(=O)O)CCC[C@]21C [Dehydroabietic-acid]", "%", 29.7],
  ["C[N+]1(C)CCCCC1 [Mepiquat]", "%", 0.813],
  ["O=P(OCC(Br)CBr)(OCC(Br)CBr)OCC(Br)CBr (configuration not stated) [Tris(2,3-dibromopropyl)phosphate]", "%", 14.8],
  ["Oc1c(Cl)cc(-c2ccc(Cl)cc2)cc1Cl [4-Hydroxy-3,4',5-trichlorobiphenyl]", "%", 36.1],
  ["CC(=O)CCc1ccc(O)cc1 [4-(4-Hydroxyphenyl)butan-2-one]", "%", 60],
  ["c1ccc(-c2ccccc2-c2ccccc2)cc1", "%", 12.9],
  ["Cn1c(N)nc2c3cccnc3ccc21 [2-Amino-3-methyl-imidazo[4,5-f]quinoline (IQ)]", "%", 11.1],
  ["COC(=O)N(OC)c1ccccc1COc1ccn(-c2ccc(Cl)cc2)n1", "%", 48],
  ["O=C1C=C(N(Cc2ccc(Cl)nc2)CC(F)F)CO1", "%", 39.3],
  ["c1ccc2cc(-c3cc4ccccc4s3)ccc2c1", "%", 0.402],
  ["O=c1c(-c2ccc(O)cc2)coc2cc(O)cc(O)c12", "%", 49.1],
  ["C/C(=N\\C#N)N(C)Cc1ccc(Cl)nc1", "%", 40.7],
  ["CC/C(=N\\OC/C=C/Cl)C1=C(O)CC(C2CCOCC2)CC1=O (configuration not stated)", "%", 40.5],
  ["CCOC(=O)c1ccc(N(C)C)cc1 [Ethyl 4-(dimethylamino)benzoate]", "%", 38.6],
  ["NC(=O)C1(N2CCCCC2)CCN(CCCC(=O)c2ccc(F)cc2)CC1", "%", 28.3],
  ["Oc1ccc2c(c1)[nH]c1ccccc12 [2-Hydroxycarbazole]", "%", 40.6],
  ["c1ccc(Cc2ccccc2)cc1", "%", 20.4],
  ["CCCCCCCCCCCCOC(=O)c1cc(O)c(O)c(O)c1 [Lauryl-gallate]", "%", 21.9],
  ["Cn1cnc2c1c(=O)[nH]c(=O)n2C", "%", 77.3],
  ["CC(C)N1C(=O)c2cc(O)ccc2NS1(=O)=O [6-Hydroxybentazone]", "%", 33.9],
  ["Nc1ccccc1", "%", 4.14],
  ["CNC(=O)Oc1cccc(/N=C/N(C)C)c1 [Formetanate]", "%", 8.98]
]}
